# MEASURED TARGET: T1, QP094 (human SIRPα V1 ECD(E31-R370)-flag-his) (human, UniProt P78324 31-370)
# T1 construct: the construct carries flag and his tags; also called SIRPαV1-flag-his; SIRPαV1-his (QP094)
# T1 sequence (P78324 other isoform, or with tags, fused parts or gaps limits assumed): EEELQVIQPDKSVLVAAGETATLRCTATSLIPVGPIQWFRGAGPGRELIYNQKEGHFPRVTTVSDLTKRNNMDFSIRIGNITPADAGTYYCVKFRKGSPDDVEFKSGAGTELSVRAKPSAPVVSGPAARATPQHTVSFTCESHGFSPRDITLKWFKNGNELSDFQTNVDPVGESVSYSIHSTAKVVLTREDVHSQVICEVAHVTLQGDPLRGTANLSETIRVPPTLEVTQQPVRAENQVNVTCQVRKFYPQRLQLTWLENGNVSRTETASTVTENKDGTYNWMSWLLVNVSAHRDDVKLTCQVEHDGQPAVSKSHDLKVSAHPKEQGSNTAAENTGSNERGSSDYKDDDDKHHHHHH
# ASSAY EXPLANATION: binding ELISA, antigen coated
PROPERTY NAME: EC50 (ng/mL)
One number for each entry, in ng/mL.

These recorded examples may help you get a feel for the data.
{"BINDER": "QP2561770 (antibody, human IgG4, V domains shown, Human IgG4 heavy constant region and kappa CL) VH: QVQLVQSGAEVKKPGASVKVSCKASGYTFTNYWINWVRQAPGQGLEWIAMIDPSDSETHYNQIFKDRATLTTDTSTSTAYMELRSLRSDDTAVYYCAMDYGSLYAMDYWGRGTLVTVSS VL: DIVLTQSPDSLAVSLGERATINCRASQSVRSSGYNWIFWYQQKPGQPPKLLIYLASNRDSGVPDRFSGSGSGTDFTLTISSLQAEDVAVYYCQESRELPTFGQGTKLEIK", "EC50 / ng/mL": 1.61}
{"BINDER": "QP256291 (antibody, human IgG4, V domains shown, Human IgG4 heavy constant region and kappa CL) VH: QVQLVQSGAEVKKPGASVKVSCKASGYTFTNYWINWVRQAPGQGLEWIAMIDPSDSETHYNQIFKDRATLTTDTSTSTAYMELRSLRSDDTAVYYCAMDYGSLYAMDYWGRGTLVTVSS VL: DIVLTQSPDSLAVSLGERATINCRASKSVGSSGYNWLFWYQQKPGQPPKLLIYLASNRDSGVPDRFSGSGSGTDFTLTISSLQAEDVAVYYCQHSRELPTFGQGTKLEIK", "EC50 / ng/mL": 1.86}

# evaluate next
Req: # input binder: QP2561594 (antibody, human IgG4, V domains shown, Human IgG4 heavy constant region and kappa CL) VH: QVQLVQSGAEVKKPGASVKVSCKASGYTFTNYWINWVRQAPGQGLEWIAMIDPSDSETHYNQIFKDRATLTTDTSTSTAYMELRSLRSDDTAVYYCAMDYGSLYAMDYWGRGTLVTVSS VL: DIVLTQSPDSLAVSLGERATINCRASKSVSSSGYNYIFWYQQKPGQPPKLLIYLASNLDSGVPDRFSGSGSGTDFTLTISSLQAEDVAVYYCQHSRDLPTFGQGTKLEIK ; wanted: its EC50
Resp: 1.12
